Trimeric HA Binding: RLU values, listed per item
biological target: recombinant homotrimeric HA A/Anhui/1/05 H5N1 (Influenza A virus A/Anhui/1/2005(H5N1)); assay: protein microarray, purified IgG, trimeric HA; conditions: remark: other sources report otherwise
Could you give me the number in RLU? Just the number is fine.

Tell me measured Trimeric HA Binding: RLU for TCN-522 (3212_I12) (antibody, V domains shown) VH: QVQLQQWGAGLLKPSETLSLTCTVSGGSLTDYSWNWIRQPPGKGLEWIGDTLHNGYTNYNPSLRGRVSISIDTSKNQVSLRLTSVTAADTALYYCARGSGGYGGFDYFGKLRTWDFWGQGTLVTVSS VL: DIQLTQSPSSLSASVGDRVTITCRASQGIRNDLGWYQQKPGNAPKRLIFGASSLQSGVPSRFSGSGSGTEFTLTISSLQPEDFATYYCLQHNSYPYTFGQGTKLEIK please.
5260

Output Trimeric HA Binding: RLU of TCN-546 (5089_L08) (antibody, V domains shown) VH: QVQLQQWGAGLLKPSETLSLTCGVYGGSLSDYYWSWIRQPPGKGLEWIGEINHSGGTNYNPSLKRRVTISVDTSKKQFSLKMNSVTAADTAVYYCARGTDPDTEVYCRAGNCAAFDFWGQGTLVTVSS VL: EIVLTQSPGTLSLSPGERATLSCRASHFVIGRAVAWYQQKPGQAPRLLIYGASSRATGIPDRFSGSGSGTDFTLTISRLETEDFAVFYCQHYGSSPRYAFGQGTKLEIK
21400

Please give the documented Trimeric HA Binding: RLU of TCN-542 (5079_A16) (antibody, V domains shown) VH: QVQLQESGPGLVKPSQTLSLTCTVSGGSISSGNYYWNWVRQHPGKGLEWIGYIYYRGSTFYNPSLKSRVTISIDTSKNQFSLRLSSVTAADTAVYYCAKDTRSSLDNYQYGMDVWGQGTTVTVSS VL: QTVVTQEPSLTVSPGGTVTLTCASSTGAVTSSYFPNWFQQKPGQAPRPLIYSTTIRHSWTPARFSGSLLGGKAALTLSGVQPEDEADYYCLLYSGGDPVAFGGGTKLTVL
10500

More entries:
Please look at this binder and report its Trimeric HA Binding: RLU: TCN-541 (5062_M11) (antibody, V domains shown) VH: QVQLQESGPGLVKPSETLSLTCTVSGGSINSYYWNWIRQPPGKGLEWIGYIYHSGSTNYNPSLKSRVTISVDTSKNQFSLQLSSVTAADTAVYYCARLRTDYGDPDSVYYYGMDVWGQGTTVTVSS VL: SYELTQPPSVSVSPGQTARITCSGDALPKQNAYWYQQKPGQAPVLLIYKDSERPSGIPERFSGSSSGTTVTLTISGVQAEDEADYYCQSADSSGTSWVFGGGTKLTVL
970

Just for reference, patent US20150086555A1 is where these values come from.
